Biological target: KRas G12S (Homo sapiens, UniProt P01116, G12S)
Construct: Biotinylated KRas (corresponding to amino acids 1-169, produced at Accelegan Inc.); biotin (biotinylated); purchased Accelegan Inc
Sequence (P01116 1-169 isoform P01116-2 G12S): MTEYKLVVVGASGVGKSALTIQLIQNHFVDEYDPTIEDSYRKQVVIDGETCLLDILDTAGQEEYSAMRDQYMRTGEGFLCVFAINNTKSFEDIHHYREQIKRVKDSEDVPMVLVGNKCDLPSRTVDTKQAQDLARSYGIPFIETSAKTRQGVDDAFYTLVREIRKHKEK
Assay: KRas binding assay, TR-FRET displacement of Cy5 labelled tracer
Settings: 60-minute incubation at room temperature, 1% DMSO, pH 7.5
experimental.readout: IC50 (nM)

Example results:
compound | measured.target | unit.label | IC50
CCc1c(F)ccc2cc(O)cc(-c3ncc4c(N(C)CCN(C)C(=O)n5ccnn5)nc(OC[C@@]56CCCN5C[C@H](F)C6)nc4c3F)c12 (single isomer, unassigned) | KRas G12S (Homo sapiens, UniProt P01116, G12S) | nM | 74
CCc1c(F)ccc2cc(O)cc(-c3ncc4c(N(C)CCN(C)C(=O)n5nccn5)nc(OC[C@@]56CCCN5C[C@H](F)C6)nc4c3F)c12 (single isomer, unassigned) | KRas G12S (Homo sapiens, UniProt P01116, G12S) | nM | 66

(A) CCc1c(F)ccc2cc(O)cc(-c3ncc4c(N5CCC(OC)(C(=O)n6ccc(C)n6)CC5)nc(OC[C@@]56CCCN5C[C@H](F)C6)nc4c3F)c12
(B) N#Cc1c(N)sc2c(F)ccc(-c3c(Cl)cc4c(N5CCC[C@H](C(=O)n6ccc(C7CC7)n6)CC5)nc(OC[C@@]56CCCN5C[C@H](F)C6)nc4c3F)c12
(C) Cc1ccn(C(=O)CCCN(C)c2cc(O[C@@H](C)[C@@H]3CCCN3C)nc(-c3noc([C@@]4(C)CCCc5sc(N)c(C#N)c54)n3)n2)n1
(D) CCc1c(F)ccc2cc(O)cc(-c3ncc4c(N(C)CCCC(=O)N(C)C(C)=O)nc(OC[C@@]56CCCN5C[C@H](F)C6)nc4c3F)c12
Hey, quick one: sort these by IC50, largest value first please. Write the labels in rank order as requested.
A, C, D, B
